assayed.system: UCHL3 C95 (P15374) (Homo sapiens, UniProt P15374)
Sequence (P15374 1-230): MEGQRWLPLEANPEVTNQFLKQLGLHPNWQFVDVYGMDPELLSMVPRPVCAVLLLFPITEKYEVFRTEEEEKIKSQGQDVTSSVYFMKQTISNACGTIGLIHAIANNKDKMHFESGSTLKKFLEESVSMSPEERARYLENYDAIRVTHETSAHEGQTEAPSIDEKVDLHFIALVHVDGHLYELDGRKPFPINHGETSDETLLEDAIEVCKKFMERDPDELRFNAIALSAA
procedure.summary: Competitive isoTOP-ABPP, cell lysates
Type: binding
run.parameters: 500 μm in-vitro ramos
isoTOP-ABPP ratio (reactivity profile), P15374_C95 less than 0.9 is 1; isoTOP-ABPP ratio (reactivity profile), P15374_C95 greater than or equal to 0.9 is 0.

In: Does O=C(/C=C/c1ccccc1)Nc1cc(C(F)(F)F)cc(C(F)(F)F)c1 [compound 26] have isoTOP-ABPP ratio (reactivity profile), P15374_C95 strictly under 0.9?
Out: 1

In: What do you have for CC(Br)C(=O)Nc1cc(C(F)(F)F)cc(C(F)(F)F)c1 (stereo not shown) [compound 24] ?
Out: 0

In: Next: O=C(CCl)N1CCOCC1 [compound 22]
Out: 1

In: O=C(CCl)N1CCN(CC(=O)N2CCOCC2)CC1 [compound 29] ?
Out: 0

In: Also, C=CC(=O)N(Cc1cccnc1)c1ccc(Oc2ccccc2)c(C(F)(F)F)c1 [compound 15] please.
Out: 1

In: Also CCN(CC)c1ccc(S(N)(=O)=O)cc1NC(=O)CCl [compound 30] , if possible.
Out: 1

In: // query: CC(C)CCOCCNC(=O)CCl [compound 27]
Out: 0

In: Then N#C/C(=C\c1cc(C(F)(F)F)cc(C(F)(F)F)c1)C(N)=O [compound 23] ?
Out: 0
